Tested on: T. cruzi (A1) epimastigotes
Assay: In vitro trypanocidal activity, Alamar Blue assay, 48 h
Assay type: cell-based, Trypanosoma cruzi
Conditions: CC50 (J774.2)/IC50
Reported values of Selectivity Index T. cruzi A1 for individual entries
Measure Name: Selectivity Index T. cruzi A1

>>> experimental_value("CCOC(=O)c1cc(-c2ccc(C)cc2)c(C(=O)OCC)nc1C")
">1.9"
>>> experimental_value("CCOC(=O)c1nc(C)c(C(=O)O[C@@H]2C[C@H]3CC[C@@]2(C)C3(C)C)cc1-c1ccc(C)cc1")
">5.2"
>>> experimental_value("CCOC(=O)c1nc(C)c(C(=O)OCCC(C)CCC=C(C)C)cc1-c1ccc(C)cc1 (centres unmarked) [Compound 11b]")
3.3
>>> experimental_value("CCOC(=O)c1nc(C)c(C(=O)OCC23CC4CC(CC(C4)C2)C3)cc1-c1ccc(F)cc1 [Compound 10c]")
">5.2"
>>> experimental_value("CCOC(=O)c1nc(C)c(C(=O)OCc2ccc3c(c2)OCO3)cc1-c1ccc(C)cc1")
">4.0"
>>> experimental_value("CCOC(=O)c1nc(C)c(C(=O)O[C@@H]2C[C@@H](C)CC[C@H]2C(C)C)cc1-c1ccc(F)cc1")
">9.2"
>>> experimental_value("CCOC(=O)c1nc(C)c(C(=O)OCC23CC4CC(CC(C4)C2)C3)cc1-c1ccc(C)cc1 [Compound 10b]")
">1.8"
>>> experimental_value("CCOC(=O)c1nc(C)c(C(=O)OCc2ccc3c(c2)OCO3)cc1-c1ccc(F)cc1")
">7.9"

----------
Tested on: L. mexicana (MHOM/MX/2017/UABJO17FCQEPS) (FCQEPS) promastigotes
Test: In vitro leishmanicidal activity, MTT method, 48 h
Assay type: cell-based, Leishmania mexicana
Conditions: Leishmania mexicana, 48 h, promastigotes, FCQEPS strain, 48 h; read-out: L. mexicana IC50 (µM ± SD) FCQEPS
Measure Name: IC50

>>> experimental_value("CCOC(=O)c1nc(C)c(C(=O)OCC=Cc2ccccc2)cc1-c1ccc(C)cc1 [Compound 7b]")
"117 µM"
>>> experimental_value("CCOC(=O)c1cc(-c2ccccc2)c(C(=O)OCC)nc1C [Compound 3a]")
"> 200 µM"
>>> experimental_value("CCOC(=O)c1nc(C)c(C(=O)OC/C=C(\\C)CCC=C(C)C)cc1-c1ccc(F)cc1 [Compound 12c]")
"114 µM"
>>> experimental_value("CCOC(=O)c1nc(C)c(C(=O)O[C@@H]2C[C@@H](C)CC[C@@H]2C(C)C)cc1-c1ccccc1 [Compound 8a]")
"82.7 µM"
>>> experimental_value("CCOC(=O)c1nc(C)c(C(=O)OCCC(C)CCC=C(C)C)cc1-c1ccc(F)cc1 (centres unmarked) [Compound 11c]")
"> 200 µM"
>>> experimental_value("CCOC(=O)c1nc(C)c(C(=O)OCc2ccc(C)cc2)cc1-c1ccc(C)cc1 [Compound 5b]")
"> 200 µM"
>>> experimental_value("CCOC(=O)c1nc(C)c(C(=O)OCc2ccc(C)cc2)cc1-c1ccccc1 [Compound 5a]")
"95 µM"
>>> experimental_value("CCOC(=O)c1nc(C)c(C(=O)OC2C[C@@H]3CC[C@@]2(C)C3(C)C)cc1-c1ccccc1 (some centres unmarked) [Compound 9a]")
"> 200 µM"
